- systemUnderTest: Human recombinant PDE2A (hPDE2A) (Homo sapiens, UniProt O00408)
- Construct: His tag (inferred from metal chelate purification); made in house; host or cells: Sf9 insect cells (baculovirus)
- Sequence (O00408 whole entry): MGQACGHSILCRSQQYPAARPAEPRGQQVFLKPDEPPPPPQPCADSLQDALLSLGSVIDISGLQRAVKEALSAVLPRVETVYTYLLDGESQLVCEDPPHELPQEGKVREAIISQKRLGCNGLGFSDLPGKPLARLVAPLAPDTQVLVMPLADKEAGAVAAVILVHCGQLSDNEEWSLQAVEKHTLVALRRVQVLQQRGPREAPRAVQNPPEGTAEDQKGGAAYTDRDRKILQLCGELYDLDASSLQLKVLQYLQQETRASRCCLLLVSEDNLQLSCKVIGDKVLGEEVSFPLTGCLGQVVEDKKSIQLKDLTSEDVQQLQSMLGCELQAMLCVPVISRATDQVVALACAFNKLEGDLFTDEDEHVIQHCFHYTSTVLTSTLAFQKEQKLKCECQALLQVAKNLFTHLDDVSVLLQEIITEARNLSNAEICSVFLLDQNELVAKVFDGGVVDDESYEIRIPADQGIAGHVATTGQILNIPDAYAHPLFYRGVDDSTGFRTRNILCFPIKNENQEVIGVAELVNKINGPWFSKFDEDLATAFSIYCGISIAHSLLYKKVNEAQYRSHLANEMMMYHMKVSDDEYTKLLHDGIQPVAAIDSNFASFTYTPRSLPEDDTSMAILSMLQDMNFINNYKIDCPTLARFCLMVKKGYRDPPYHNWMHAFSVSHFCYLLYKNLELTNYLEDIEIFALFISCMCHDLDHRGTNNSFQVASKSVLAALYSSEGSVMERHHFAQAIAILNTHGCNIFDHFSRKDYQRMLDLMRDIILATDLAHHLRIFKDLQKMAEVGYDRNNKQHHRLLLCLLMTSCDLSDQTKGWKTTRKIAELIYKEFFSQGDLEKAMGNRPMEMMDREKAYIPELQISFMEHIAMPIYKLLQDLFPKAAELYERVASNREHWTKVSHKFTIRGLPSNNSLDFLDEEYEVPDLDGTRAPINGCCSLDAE
- experimentDescription: In vitro assay PDE2A (SPA, 3H-cGMP hydrolysis)
- Assay type: biochemical
- measurementContext: human recombinant PDE2A; read-out: hPDE2A Emax
recordedEndpoint: Emax
Field note: include the unit after the figure.

# return Emax for each item in the list
1. COc1ccc2nc(C(=O)N3CC[C@@H](C)[C@H](c4cc(C(F)F)nc5ncnn45)C3)sc2c1
2. C[C@@H]1CCN(C(=O)c2ccc(Cl)s2)C[C@H]1c1cc(C(F)F)nc2ncnn12
3. Cc1cnc(C(F)(F)F)cc1C(=O)N1CC[C@@H](C)[C@H](c2cc(C(F)F)nc3ncnn23)C1

1. 99%
2. 100%
3. 101%

Which Emax value is on record for C[C@@H]1CCN(C(=O)c2ccc3ncoc3c2)C[C@H]1c1cc(C(F)F)nc2ncnn12 ?
100%

---

- systemUnderTest: Human recombinant PDE3A (hPDE3A) (Homo sapiens)
- Construct: purchased Scottish Biomedical; host or cells: Sf9 insect cells
- Sequence (Q14432 whole entry): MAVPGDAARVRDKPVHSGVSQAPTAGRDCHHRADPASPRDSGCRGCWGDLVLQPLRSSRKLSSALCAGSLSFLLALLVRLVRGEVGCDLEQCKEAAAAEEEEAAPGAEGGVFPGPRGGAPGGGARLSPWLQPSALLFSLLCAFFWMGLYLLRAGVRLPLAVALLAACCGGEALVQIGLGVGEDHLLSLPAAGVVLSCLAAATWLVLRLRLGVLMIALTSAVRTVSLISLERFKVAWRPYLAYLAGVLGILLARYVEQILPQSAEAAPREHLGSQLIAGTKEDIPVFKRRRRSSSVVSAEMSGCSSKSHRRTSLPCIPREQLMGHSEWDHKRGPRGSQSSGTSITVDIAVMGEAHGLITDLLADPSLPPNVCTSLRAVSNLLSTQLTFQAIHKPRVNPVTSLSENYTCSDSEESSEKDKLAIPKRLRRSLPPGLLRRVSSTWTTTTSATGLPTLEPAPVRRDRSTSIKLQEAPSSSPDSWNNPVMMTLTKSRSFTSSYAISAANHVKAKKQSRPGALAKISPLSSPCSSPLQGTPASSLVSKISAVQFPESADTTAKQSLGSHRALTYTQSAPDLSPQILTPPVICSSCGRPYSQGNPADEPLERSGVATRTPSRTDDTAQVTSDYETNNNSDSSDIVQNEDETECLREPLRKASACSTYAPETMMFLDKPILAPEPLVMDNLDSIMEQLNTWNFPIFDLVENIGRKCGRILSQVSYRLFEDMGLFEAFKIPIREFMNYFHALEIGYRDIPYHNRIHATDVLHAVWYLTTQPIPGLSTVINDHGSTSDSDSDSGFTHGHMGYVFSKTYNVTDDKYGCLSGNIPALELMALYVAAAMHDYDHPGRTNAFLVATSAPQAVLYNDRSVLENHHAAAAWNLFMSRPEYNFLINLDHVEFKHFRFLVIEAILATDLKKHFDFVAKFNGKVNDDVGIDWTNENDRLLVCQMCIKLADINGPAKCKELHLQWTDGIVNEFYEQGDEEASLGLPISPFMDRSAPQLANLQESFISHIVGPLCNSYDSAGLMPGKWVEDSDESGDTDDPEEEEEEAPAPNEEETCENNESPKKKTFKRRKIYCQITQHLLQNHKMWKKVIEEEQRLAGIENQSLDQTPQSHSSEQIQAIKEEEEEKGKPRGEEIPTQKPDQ
- experimentDescription: In vitro assay PDE3A (SPA, 3H-cAMP hydrolysis);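 further: the method names PDE3A and the table heading PDE3B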
- Format: biochemical
- measurementContext: hPDE3B pIC50; read-out: pIC50 (converted)
- Method: Human recombinant PDE3A (hPDE3A) was supplied as a partially purified insect cell lysate by Scottish Biomedical, it was cloned from human brain and expressed in Sf9 cells. Tested compounds were dissolved and diluted in 100% DMSO to a concentration 100 fold of the final concentration in the assay. […] After sedimentation of the beads during 30 min the radioactivity was measured in a Perkin Elmer Topcount scintillation counter and results were expressed as cpm. […]
recordedEndpoint: IC50

Some entries whose results are on file:
compound	systemUnderTest	IC50
C[C@@H]1CCN(C(=O)c2cc(Cl)nc(Cl)c2F)C[C@H]1c1cc(C(F)F)nc2ncnn12	Human recombinant PDE3A (hPDE3A) (Homo sapiens)	> 1 µM
COc1cc(C(=O)N2CC[C@@H](C)[C@H](c3cc(C(F)F)nc4ncnn34)C2)c(F)c(C)n1	Human recombinant PDE3A (hPDE3A) (Homo sapiens)	5.25 µM
Cc1cc2cc(C(=O)N3[C@H]4CC[C@H](c5cc(C(F)F)nc6ncnn56)[C@@H]3CC4)ccc2n1C	Human recombinant PDE3A (hPDE3A) (Homo sapiens)	0.537 µM
Cc1csc(C(=O)N2CCC[C@](C)(c3cc(C(F)F)nc4ncnn34)C2)c1 (single isomer, unassigned)	Human recombinant PDE3A (hPDE3A) (Homo sapiens)	> 10 µM
COc1c(C)cc(C(=O)N2CC[C@@H](C)[C@@](F)(c3cc(C(F)F)nc4ncnn34)C2)cc1C	Human recombinant PDE3A (hPDE3A) (Homo sapiens)	> 10 µM

# return IC50 for each item in the list
1. COc1ccc(C(=O)N2CC[C@@H](C)[C@H](c3cc(C(F)F)nc4ncnn34)C2)nc1
2. Cc1cc(C(=O)N2[C@H]3CC[C@H](c4cc(C(F)F)nc5ncnn45)[C@@H]2CC3)c(C)s1

["> 10 µM", "> 10 µM"]

---

- systemUnderTest: PDE2A (Rattus norvegicus)
- Construct: Twenty μm-thick striatal sections were cut; from tissue; host or cells: rat brain, striatal sections
- Sequence (Q01062 whole entry): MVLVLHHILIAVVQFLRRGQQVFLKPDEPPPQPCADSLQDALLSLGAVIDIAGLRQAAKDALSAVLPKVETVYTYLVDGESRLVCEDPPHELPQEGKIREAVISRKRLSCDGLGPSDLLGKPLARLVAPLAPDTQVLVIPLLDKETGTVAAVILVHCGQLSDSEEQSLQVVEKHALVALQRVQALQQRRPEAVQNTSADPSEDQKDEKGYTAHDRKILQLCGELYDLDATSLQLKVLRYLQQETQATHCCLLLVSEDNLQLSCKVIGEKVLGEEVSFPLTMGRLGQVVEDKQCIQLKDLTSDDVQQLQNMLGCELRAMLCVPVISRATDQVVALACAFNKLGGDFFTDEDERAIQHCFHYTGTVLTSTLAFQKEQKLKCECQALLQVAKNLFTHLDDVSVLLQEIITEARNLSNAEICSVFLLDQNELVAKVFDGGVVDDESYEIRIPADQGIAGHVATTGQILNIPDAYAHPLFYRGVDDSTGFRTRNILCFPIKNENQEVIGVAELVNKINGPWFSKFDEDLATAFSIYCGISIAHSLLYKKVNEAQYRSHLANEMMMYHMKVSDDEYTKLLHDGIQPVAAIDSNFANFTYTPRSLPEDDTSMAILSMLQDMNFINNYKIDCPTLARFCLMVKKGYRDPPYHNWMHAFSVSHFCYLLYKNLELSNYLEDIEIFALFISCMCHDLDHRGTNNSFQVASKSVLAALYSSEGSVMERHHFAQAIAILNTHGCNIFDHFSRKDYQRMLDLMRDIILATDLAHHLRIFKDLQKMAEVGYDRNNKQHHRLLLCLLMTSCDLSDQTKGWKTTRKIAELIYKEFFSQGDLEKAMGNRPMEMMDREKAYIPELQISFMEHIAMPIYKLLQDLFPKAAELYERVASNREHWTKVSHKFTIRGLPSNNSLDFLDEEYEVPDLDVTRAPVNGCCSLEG
- experimentDescription: PDE2 occupancy by test compounds, ex-vivo autoradiography with [3H]B-17a
- Assay type: in vivo, Male Wistar rats
- measurementContext: sc, 10 mg/kg, route SC (subcutaneous), percentage receptor occupancy, ex-vivo autoradiography, striatum
Assignment: determine reported receptor occupancy at 10 mg/kg for the given compounds.
Answers are plain numbers, in %.

Some entries whose results are on file:
compoundSmiles	receptor occupancy at 10 mg/kg / %
C[C@@H]1CCN(C(=O)c2noc3ccccc23)C[C@H]1c1cc(C(F)F)nc2ncnn12	0
C[C@@H]1CCN(C(=O)c2ccc(C3CC3)c(F)c2)C[C@H]1c1cc(C(F)F)nc2ncnn12	42
Cc1cc([C@H]2CN(C(=O)c3ccc4ncsc4c3)CC[C@@H]2C)n2ncnc2n1	3

# return receptor occupancy at 10 mg/kg for each item in the list
1. Cc1cc([C@@H]2CN(C(=O)c3ccc4ncsc4c3)CC[C@H]2C)n2ncnc2n1
2. Cc1ccc(C(=O)N2CC[C@@H](C)[C@H](c3cc(C(F)F)nc4ncnn34)C2)nc1C
3. COc1cc(C(=O)N2CC[C@@H](C)[C@H](c3cc(C(F)F)nc4ncnn34)C2)ccc1F
4. C[C@@H]1CCN(C(=O)c2ccc(F)c(O)c2)C[C@H]1c1cc(C(F)F)nc2ncnn12
5. Cc1nc2ccc(C(=O)N3CC[C@@H](C)[C@H](c4cc(C(F)F)nc5ncnn45)C3)cc2o1

[70, 1, -13, 8, 53]

Values from patent US10947242B2
